# subject of test: biotinylated human IL-17 (binding to IL17R/Fc) (Homo sapiens)
# Construct: 177-IR (IL17R/Fc)
# Sequence (Q16552 20-155 limits assumed): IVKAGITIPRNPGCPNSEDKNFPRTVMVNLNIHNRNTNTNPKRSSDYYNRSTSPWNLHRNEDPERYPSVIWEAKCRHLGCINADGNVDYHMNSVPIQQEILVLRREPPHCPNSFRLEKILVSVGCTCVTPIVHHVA
# assay text: IL-17 competition ELISA II (captured IL17R/Fc, biotinylated IL-17)
pIC50: −log10 of the molar value.
Item-by-item account of pIC50

smiles str | subject of test | pIC50
O=C1CC2(CCCC2)CC(=O)N[C@H](Cc2ccc(NC(=O)[C@H](Cc3ccccc3C(F)(F)F)NC(=O)C3(c4ccc(F)cc4)CC3)cc2)C(=O)NCCOCCOCCN1 | biotinylated human IL-17 (binding to IL17R/Fc) (Homo sapiens) | 6.00 to 7.00

query: Give me measured pIC50, please, for this molecule: CN1CCOCCOCCNC(=O)[C@@H](Cc2ccc(NC(=O)[C@H](Cc3ccccc3Cl)NC(=O)Cc3ccc(N(C)C)cc3)cc2)NC(=O)CC2(CCCC2)CC1=O
result: > 7.00

query: Give me measured pIC50, please, for this molecule: NC(=O)C[C@H]1NC(=O)[C@@H](Cc2ccc(NC(=O)[C@H](Cc3ccccc3Cl)NC(=O)Cc3ccc(CO)cc3)cc2)NC(=O)CC2(CCCC2)CC(=O)N[C@H](C(=O)O)CCCCNC1=O
result: > 7.00

query: Give me measured pIC50, please, for this molecule: CN1C(=O)CC2(CCCC2)CC(=O)NCCOCCOCCNC(=O)[C@H]1Cc1ccc(NC(=O)[C@H](Cc2ccccc2Cl)NC(=O)C2(c3ccc(F)cc3)CC2)cc1
result: 6.00 to 7.00

query: Give me measured pIC50, please, for this molecule: COC(=O)N[C@H](C(=O)Nc1ccc(C[C@H]2NC(=O)CC3(CCCC3)CC(=O)N(C)CCOCCOCCNC2=O)cc1)C1CCCCC1
result: < 5.00

----------
Item-by-item account of pIC50
# subject of test: biotinylated human IL-17 (binding to IL17R/Fc) (Homo sapiens)
# Construct: purchased R&D Systems 317-ILB (IL-17, biotinylated); 177-IR (IL17R/Fc)
# assay text: IL-17 competition ELISA II (captured IL17R/Fc, biotinylated IL-17)
# Procedure: In this version, a high binding 96-well plate (Costar #9018) was coated with 20 nM of goat anti-human IgG (KPL 01-10-02) in PBS, 100 μL/well, for 30 min at 37° C. followed by 5 min at 4° C. […] Data was processed using BioAssay Enterprise v10.1.4 (CambridgeSoft) software. […] IC50 was calculated using positive ‘no competitor’ control data as an upper limit and blank control as a lower limit in each assay.
pIC50: −log10 of the molar value.

Solved cases (4 shown):
smiles str | result
C[C@H]1NC(=O)[C@@H](Cc2ccc(NC(=O)[C@H](Cc3ccccc3Cl)NC(=O)Cc3ccccc3)cc2)NC(=O)CC2(CCCC2)CC(=O)NCCCCCNC1=O | > 7.00
CN1CCCCCN(C)C(=O)[C@@H](CC(N)=O)NC(=O)[C@@H](Cc2ccc(NC(=O)[C@H](Cc3ccccc3Cl)NC(=O)C(F)(F)c3ccccc3)cc2)NC(=O)CC2(CCCC2)CC1=O | > 7.00
CC(=O)N[C@@H](Cc1ccccc1Cl)C(=O)Nc1ccc(C[C@H]2NC(=O)CC3(CCCC3)CC(=O)N[C@H](C(=O)O)CCCCNC(=O)CNC2=O)cc1 | > 7.00
O=C1CNC(=O)[C@@H](Cc2ccc(NC(=O)[C@@H](NC(=O)Cc3ccccc3)c3ccccc3)cc2)NC(=O)CC2(CCCC2)CC(=O)NCCCCCN1 | 6.00 to 7.00

// below: pIC50 requested for another molecule
query: Give me measured pIC50, please, for this molecule: O=C1CC2(CCCC2)CC(=O)N[C@H](Cc2ccc(NC(=O)[C@H](Cc3ccccc3Cl)NC(=O)Cc3ccc(F)cc3)cc2)C(=O)N[C@H](Cc2ccccn2)C(=O)NCCCCCN1
result: > 7.00
